# credit: PubChem BioAssay (NCI)

Listed molecules paired with reported growth
Test system: UACC-257 melanoma
Assay: NCI-60 one-dose screen, 48 h (100 = growth as untreated, 0 = no growth, -100 = all killed)
Conditions: 10 µM
The panel holds about 83,000 compounds, 20% with a hit somewhere; the sample as a whole holds those more often.
Give the quantity in %, number only.

Observe how each entry below is paired with its result.
MOLECULE | SYSTEM_UNDER_TEST | QUANTITY_MEASURED | RESULT_UNITS | MEAS_VALUE
COc1ccc2[nH]cc(/C=N/Nc3cccc(Cl)n3)c2c1 | UACC-257 melanoma | growth | % | 84.3
COc1ccc(/C=C/C(=O)c2ccc(N3CCN(C)CC3)cc2)c(C(F)(F)F)c1 | UACC-257 melanoma | growth | % | 63.3
CC(=O)c1cc(C(=O)N2c3ccccc3Sc3ccccc32)n2ccc(C)cc12 | UACC-257 melanoma | growth | % | 31.6
CC(=O)Oc1ccccc1C(=O)Oc1ccc(C(=O)/C=C/c2ccncc2)cc1 | UACC-257 melanoma | growth | % | 94.9
O=C(N/C(=C1/OCCN1Cc1ccccc1)[P+](c1ccccc1)(c1ccccc1)c1ccccc1)c1ccccc1 | UACC-257 melanoma | growth | % | -4.84
COc1ccc(CCN2C(=O)/C(=C/c3csc(C#N)n3)SC2=S)cc1OC | UACC-257 melanoma | growth | % | 13.4

Query block: What value of growth has been recorded for this entry: CN1CCN(Cc2ccc(NC(=O)c3cncc(C#Cc4cnc5ccc(N[C@H]6CCOC6)nn45)c3)cc2C(F)(F)F)CC1
Result block: -84.1

Query block: Try the molecule O=C(Nc1cc(Cl)cc(Cl)c1)Nc1cc(Cl)cc(Cl)c1
Result block: -29.7

Query block: Try the molecule CNC(=O)c1cccc(N2CCc3c2ccc(NC(=O)Nc2ccc(N4CCN(C)CC4)c(C(F)(F)F)c2)c3F)c1
Result block: -35

Query block: Try the molecule COc1ccc(N(C)c2cc(C#N)nc3ccccc23)cc1N
Result block: 63.3

Query block: Try the molecule C/C(=C\CC/C=C(\C)CC/C=C(\C)CC[C@@H](O)C(C)(C)O)CC/C=C(\C)CC[C@@H](O)C(C)(C)O
Result block: 21.1

Query block: Try the molecule COc1ccc(C(=O)/C=C/c2ccc(Cl)c(C(F)(F)F)c2)cc1S(N)(=O)=O
Result block: -78.2

Query block: Try the molecule N#Cc1c(NC(=O)c2ccc(C(O)(C(F)(F)F)C(F)(F)F)cc2)sc2c1CCC(=O)C2
Result block: -61.6

Query block: Try the molecule O=C(Nc1ccc(I)cc1)Nc1nc2ccc([N+](=O)[O-])cc2s1
Result block: -91

Query block: Try the molecule O=C(Cn1cc(CSc2nnc3oc4ccccc4n23)nn1)Nc1cccc(Cl)c1
Result block: 71

Query block: Try the molecule C[C@H]1[C@H](C)CC[C@]2(COC(=O)CCC(=O)NCC#CCN3CCNCC3)CC[C@]3(C)C(=CC[C@@H]4[C@@]5(C)CCCNC(C)(C)[C@@H]5CC[C@]43C)[C@H]12
Result block: 26.3

Query block: Try the molecule CC1=C2C(=C[C@@](C)(CO)[C@@H]2O)/C(=N\N)[C@](C)(O)C12CC2
Result block: -49.4

Query block: Try the molecule COc1ccccc1[C@H]1C(C(=O)c2ccc(O)cc2)C2(N[C@@H]1c1ccccc1)C(=O)Nc1ccc(Br)cc12 (stereo partly drawn)
Result block: 56.1
